Test system: B6C3F1 mice, B16 melanoma ip, median survival T/C
Test: NCI In Vivo Anticancer Drug Screen. Data for tumor model B16 Melanoma (intraperitoneal) in B6C3F1 mice
Settings: endpoint: median survival time; dose: 200.0 mg/kg/injection; schedule: Q01DX009 (ip); vehicle: Klucel (hydroxypropylcellulose) (HPC); higher = longer survival
Inconclusive results and toxic doses are left out. Where a SMILES comes first, the peptide text is derived from it. The star is where a group is joined. Cbz = O=C(OCc1ccccc1)*
READOUT: T/C

Previously resolved entries follow.
What reported T/C corresponds to COC(=O)C(NC(=O)C(NC(=O)OCc1ccccc1)C(C)O)C(C)C (stereo not drawn) (Cbz-Thr-Val-OMe; configuration not given here) on B6C3F1 mice, B16 melanoma ip, median survival T/C?
93 % of control

Fill in the recorded T/C for this molecule, with B6C3F1 mice, B16 melanoma ip, median survival T/C as test system: CCC(C)C(NC(=O)OC(C)(C)C)C(=O)O (centres undefined)
92 % of control

For the record N/C(=N\OC(=O)Nc1ccc(CSc2ccc(Cl)cc2)o1)c1ccccn1 , what value of T/C is listed for B6C3F1 mice, B16 melanoma ip, median survival T/C?
86 % of control

Continuing:
Test system B6C3F1 mice, B16 melanoma ip, median survival T/C; read-out T/C; what value for CC(C)CC(NC(=O)CNC(=O)C(CC(C)C)NC(=O)CN)C(=O)O (centres undefined) (H-GLGL-OH; configuration not given here) ?
118 % of control

* * *

System: B6C3F1 mice, B16 melanoma ip, median survival T/C
Assay: NCI In Vivo Anticancer Drug Screen. Data for tumor model B16 Melanoma (intraperitoneal) in B6C3F1 mice
Details: endpoint: median survival time; dose: 100.0 mg/kg/injection; schedule: Q01DX009 (ip); vehicle: water; higher = longer survival
Inconclusive results and toxic doses are left out.
Please provide measured T/C for the entries that follow.

Record request: T/C value, item O=C(NO)c1cc(O)c(O)c(O)c1
114 % of control

Which value of T/C has been reported for O=NNc1ncc(Br)cc1Br in the records?
98 % of control

So what's the measured T/C for this one? CS(C)(O)NC(N)=O
103 % of control

Fill blank: measured T/C of the compound CN(C)[C@@H]1C(=O)C(C(N)=O)=C(O)[C@@]2(O)C(=O)C3=C(O)c4c(O)ccc(Cl)c4[C@@](C)(O)[C@H]3C[C@@H]12 is ____.
100 % of control

For the compound Cc1noc(N)c1N , what T/C is on record?
100 % of control

Here are 4 compounds. What values of T/C were reported for them?
1. Nc1ccc(C(=O)O)cc1
2. NC(=O)c1c[se]c(C2OC(CO)C(O)C2O)n1 (stereo not given)
3. O=C(O)C1CC(c2ccccc2)=NN1c1ccccc1 (stereo not given)
4. CC(=O)NO

1: 102 % of control; 2: 109 % of control; 3: 103 % of control; 4: 102 % of control

Sample OC1OC2COC(c3ccccc3)OC2C(O)C1O (stereo not given) — what was its T/C?
110 % of control

* * *

System: B6C3F1 mice, B16 melanoma ip, median survival T/C
Assay: NCI In Vivo Anticancer Drug Screen. Data for tumor model B16 Melanoma (intraperitoneal) in B6C3F1 mice
Conditions: endpoint: median survival time; dose: 100.0 mg/kg/injection; schedule: Q01DX009 (ip); vehicle: saline with Tween-80
Inconclusive results and toxic doses are left out. The calls were made as follows: active = survival T/C of 150% or more; inactive = T/C below 125% in these data.
Just give me one of these, please: active, inactive

# example entries with known answers
Outcome? CCCCCCC(=O)CC(SCC)c1ccccc1Cl (stereo not given)
inactive

Please indicate how the test categorized O=[N+]([O-])c1ccc(N2CCOCC2)c2c1no[n+]2[O-] .
inactive

***
Hello, I am checking results. What call was entered for CCOC(=O)c1c(C)c(C(=O)OCC)n(CC)c1C=O ?
inactive

Please share the test call associated with CCN1CSC(=S)N(CC)C1 .
inactive

Please indicate how the test categorized COc1ccc(/C=C/C(=O)c2cc(C(=O)O)c(OC)cc2OC)cc1OC .
inactive

I'd appreciate the recorded outcome for O=C(O)C(Cc1ccc(O)cc1)NS(=O)(=O)Cc1ccccc1 (stereo not given) from this test.
inactive

Hi, do you know how c1ccc(Cc2ccccc2)cc1 came out in this test?
inactive

// outcome(item) with item = O=C(N[C@H](CO)[C@H](O)c1ccc([N+](=O)[O-])cc1)C(Cl)Cl
inactive

Kindly provide the recorded test outcome for the following compound: CCOC(=O)c1cn(C)c2c1C(O)=C(C(=O)OC)CC(=O)N2
inactive

What classification did Nc1ccc2ccc(O)cc2c1 end up with in this test?
inactive

Outcome? Nc1cc(=O)[nH][nH]1
inactive

* * *

Assignment: determine reported T/C for the given compounds.
System: B6C3F1 mice, B16 melanoma ip, median survival T/C
Assay: NCI In Vivo Anticancer Drug Screen. Data for tumor model B16 Melanoma (intraperitoneal) in B6C3F1 mice
Details: endpoint: median survival time; dose: 1.56 mg/kg/injection; schedule: Q01DX009 (ip); vehicle: saline with Tween-80; higher = longer survival
Toxic doses and inconclusive results are not listed.

Given the entry CC1(C)N=C(N)N=C(N)N1c1ccc(CCCCc2ccc(S(=O)(=O)F)cc2Cl)c(Cl)c1 , what T/C was observed with B6C3F1 mice, B16 melanoma ip, median survival T/C?
122 % of control

Give recorded T/C with B6C3F1 mice, B16 melanoma ip, median survival T/C for the following compound: CC1=C(C)C(=O)O[C@@H]([C@](C)(O)[C@]2(O)CC[C@@]3(O)[C@@H]4C[C@H]5O[C@]56CC=CC(=O)[C@]6(C)[C@H]4CC[C@]23C)C1
121 % of control

Let us move to another entry and its T/C.
Lab request: please report T/C under test system B6C3F1 mice, B16 melanoma ip, median survival T/C for Cn1c(=O)c2c(nc(CCCCc3nc4c(c(=O)n(C)c(=O)n4C)n3C)n2C)n(C)c1=O
109 % of control

* * *

System: B6C3F1 mice, B16 melanoma ip, median survival T/C
Experiment: NCI In Vivo Anticancer Drug Screen. Data for tumor model B16 Melanoma (intraperitoneal) in B6C3F1 mice
Details: endpoint: median survival time; dose: 100.0 mg/kg/injection; schedule: Q01DX009 (ip); vehicle: Klucel (hydroxypropylcellulose) (HPC); higher = longer survival
Toxic doses and inconclusive results are not listed. Where a SMILES comes first, the peptide text is derived from it.
READOUT: T/C

Below are worked cases with known answers.
// lookup T/C for CC(NC(=O)OCc1ccccc1)C(=O)NC(Cc1c[nH]c2ccccc12)C(=O)O (stereo not given)
95 % of control

Would you kindly share the measured T/C for O=C(Cl)c1ccccc1S(=O)(=O)N(CCOc1ccccc1)c1ccccc1 ?
94 % of control

Suppose we examine the compound CC12C(=O)C=CCC1=CCC1C2CCC2(O)C(=O)OC3(C)C4CC5(C)C(COC16OC23C5C6=O)C(=O)O4 (stereo not given) ; what T/C value has been reported?
93 % of control

For each of the items listed, what is its T/C?
1. C=CCOc1cc2c(cc1C(C)c1ccc(OC)cc1)OCO2 (stereo not given)
2. CC(C)(C)N(C(=O)OCC1c2ccccc2-c2ccccc21)C(CO)C(=O)O (stereo not given)

1: 108 % of control; 2: 96 % of control

I need T/C for every entry listed below, if you could help.
1. CC(C)(C)OC(=O)N(C=O)C(Cc1c[nH]c2ccccc12)C(=O)O (stereo not given)
2. COC(=O)C(Cc1ccc(O)cc1)NC(=O)C(Cc1ccccc1)NC(C)=O (stereo not drawn) (Ac-Phe-Tyr-OMe; configuration not given here)
3. CN(C)C(=O)SC1=C(c2c(Cl)cccc2Cl)C(=O)c2ccccc21
4. CC(C)(C)OC(=O)NC(Cc1ccccc1)C(=O)O (stereo not given)
5. COC1C(CO)OC(n2cnc3c(=S)nc(N)[nH]c32)C1O (stereo not given)

["94 % of control", "92 % of control", "101 % of control", "88 % of control", "114 % of control"]

* * *

System: B6C3F1 mice, B16 melanoma ip, median survival T/C
Assay: NCI In Vivo Anticancer Drug Screen. Data for tumor model B16 Melanoma (intraperitoneal) in B6C3F1 mice
Conditions: endpoint: median survival time; dose: 25.0 mg/kg/injection; schedule: Q01DX009 (ip); vehicle: suspension in saline
Inconclusive results and toxic doses are left out. The calls were made as follows: active = survival T/C of 150% or more; inactive = T/C below 125% in these data.
Pick from true for active, false for inactive when you respond.

Dear colleague, could you share the recorded outcome for NC(=S)N/N=C/c1ccc(O)cn1 when you have a moment?
false

---
Assay outcome for Nc1nc(F)nc2c1ncn2C1OC(COP(=O)(O)O)C(O)C1O (stereo not given) : what was it?
false

# outcome recorded in this test, key = Cn1cnc([N+](=O)[O-])c1Sc1ncn[nH]1
false

Write down the call the test reported for this compound. Item: O=c1[nH]cnc2[nH]ncc12
false

* * *

Tested on: B6C3F1 mice, B16 melanoma ip, median survival T/C
Experiment: NCI In Vivo Anticancer Drug Screen. Data for tumor model B16 Melanoma (intraperitoneal) in B6C3F1 mice
Settings: endpoint: median survival time; dose: 100.0 mg/kg/injection; schedule: Q01DX009 (ip); vehicle: suspension in saline
Inconclusive results and toxic doses are left out. Rule for the calls: active = survival T/C of 150% or more; inactive = T/C below 125% in these data.
Tick one outcome: active, inactive

Recorded results for 5 compounds are shown here.
Answer briefly: the call reported for Nc1nc(F)nc2c1ncn2C1OC(COP(=O)(O)O)C(O)C1O (stereo unspecified) in this assay.
inactive

Tell me the recorded outcome of this test for C1OC1CO[C@@H]1CO[C@H]2[C@@H]1OC[C@H]2OCC1CO1 (stereo partly specified) .
active

Hey, what did the test say about O=c1c(O)c(-c2ccc(O)c(O)c2)oc2cc(O)cc(O)c12 ?
inactive

What was the test verdict on N[C@@H](Cc1ccc(O)c(O)c1)C(=O)O ?
inactive

Dear colleague, could you share the recorded outcome for CC1=CC(=NN=c2cc(C)n([O-])c(C)c2)C=C(C)[N+]1=O when you have a moment?
inactive

Next:
Could you please tell me the result logged for Cc1cc2nc3c(=O)[nH]c(=O)nc-3n(CC(O)C(O)C(O)C(O)CO)c2cc1C (stereo unspecified) in this assay?
inactive

Outcome logged for O=c1[nH]c(=O)n([C@H]2CCCO2)cc1F in this assay:
inactive

Recorded call for Cn1cnc([N+](=O)[O-])c1Sc1ncn[nH]1 ?
inactive

Which outcome was assigned to C1CNCCN1 in this test?
inactive

// param item: N#C[C@H](OC1OC(COC2OC(CO)C(O)C(O)C2O)C(O)C(O)C1O)c1ccccc1 (stereo partly specified) ; yields the recorded call
inactive

Query: recorded result category for Cn1nnc2c(C(N)=O)ncn2c1=O in this test
active

Measured values drawn from PubChem BioAssay AID200 for this set.
